Where do the numbers come from? From patent US20240158446A1.

target: UniProtKB P01116; experiment: Binding to KRAS by surface plasmon resonance (SPR), Single Cycle Kinetics; details: SPR Single Cycle Kinetics, GDP-bound KRAS wild-type protein, 1:1 binding model; read-out: KRAS KD
Where a SMILES comes first, the peptide text is derived from it. Bridges are numbered along the chain shown (N, C = ends). [ ]: non-standard residue; d: D form. The star is where a group is joined. hPhe(3-Cl-4-CF3) = N[C@@H](CCc1ccc(C(F)(F)F)c(Cl)c1)C(=O)O; NPrPhe(4-CF3) = CCCN[C@@H](Cc1ccc(C(F)(F)F)cc1)C(=O)O; NEtPhe(4-CF3) = CCN[C@@H](Cc1ccc(C(F)(F)F)cc1)C(=O)O; hPhe(3,4-Cl2) = N[C@@H](CCc1ccc(Cl)c(Cl)c1)C(=O)O; NMeGly(cPent) = CN[C@H](C(=O)O)C1CCCC1; Pro(4,4-F2) = O=C(O)[C@@H]1CC(F)(F)CN1; NEtPhe = CCN[C@@H](Cc1ccccc1)C(=O)O; NMeD = CN[C@@H](CC(=O)O)C(=O)O; NMeL = CN[C@@H](CC(C)C)C(=O)O; Morpholide = C1CN(*)CCO1; NMeA = CN[C@@H](C)C(=O)O; Ac5c = NC1(C(=O)O)CCCC1; Aze = O=C(O)[C@@H]1CCN1; Ac4c = NC1(C(=O)O)CCC1; Sar = CNCC(=O)O
We begin with a simple list: items and their reported Kd.
Numeric answer only, unit nM assumed.

Field: example entries. Status: answers known.
CCCN1C(=O)CN(C)C(=O)CNC(=O)[C@H]([C@@H](C)CC)NC(=O)[C@H](CC(C)C)N(C)C(=O)C[C@@H](C(=O)N(C)C)N(C)C(=O)[C@H](C2CCCC2)N(C)C(=O)C2(CCC2)NC(=O)[C@@H]2CC(F)(F)CN2C(=O)[C@H](CCc2ccc(C(F)(F)F)c(Cl)c2)NC(=O)CN(C)C(=O)[C@@H]1Cc1ccc(C(F)(F)F)cc1 [PP0420] ([NMeL]IG[Sar][NPrPhe(4-CF3)][Sar][hPhe(3-Cl-4-CF3)][Pro(4,4-F2)][Ac4c][NMeGly(cPent)][NMeD]-NMe2; lactam N-11)    0.034
CCO[C@@H]1C[C@H]2C(=O)NC3(CC(C)(C)C3)C(=O)N(C)[C@@H](C(CC)CC)C(=O)N(C)[C@H](C(=O)N(C)C)CC(=O)N(C)[C@@H](COC)C(=O)N[C@@H]([C@@H](C)CC)C(=O)N(C3CC3)CC(=O)N(C)[C@H]3C/C=C\CCN(C3=O)[C@@H](CC3CCC(F)(F)CC3)C(=O)N(C)CC(=O)N[C@@H](CCc3cc(F)c(C(F)(F)F)c(F)c3)C(=O)N2C1    1.2
CC[C@H](C)[C@@H]1NC(=O)[C@H](CC(C)C)N(C)C(=O)C[C@@H](C(=O)N2CCOCC2)N(C)C(=O)[C@H](C2CCCC2)N(C)C(=O)C2(CCCC2)NC(=O)[C@@H]2CCCN2C(=O)[C@H](CCc2ccc(Cl)c(Cl)c2)NC(=O)CN(C)C(=O)[C@H](Cc2ccc(C(F)(F)F)cc2)N(CC)C(=O)CN(C)C(=O)CN(C)C1=O [PP0237] ([NMeL]I[Sar][Sar][NEtPhe(4-CF3)][Sar][hPhe(3,4-Cl2)]P[Ac5c][NMeGly(cPent)][NMeD]-Morpholide; lactam N-11)    0.28
CCC[C@H]1C(=O)N[C@@H]([C@@H](C)CC)C(=O)N(C)CC(=O)N(C)[C@H]2C/C=C\CCN(C2=O)[C@@H](Cc2ccc(C)cc2)C(=O)N(C)CC(=O)N[C@@H](CCc2ccc(Cl)c(Cl)c2)C(=O)N2C[C@H](OCC)C[C@H]2C(=O)NC2(CC(C)(C)C2)C(=O)N(C)[C@@H](CC(C)(C)C)C(=O)N(C)[C@H](C(=O)N(C)C)CC(=O)N1C    0.25

// next item, Kd requested
Looking up CC[C@H](C)[C@@H]1NC(=O)[C@H](CC(C)C)N(C)C(=O)C[C@@H](C(=O)N2CCOCC2)N(C)C(=O)[C@H](C2CCCC2)N(C)C(=O)C2(CCCC2)NC(=O)[C@@H]2CCCN2C(=O)[C@H](CCc2ccc(C(F)(F)F)c(Cl)c2)NC(=O)CN(C)C(=O)[C@H](Cc2ccccc2)N(CC)C(=O)[C@@H]2CCN2C(=O)[C@H](C)N(C)C1=O [PP0215] ([NMeL]I[NMeA][Aze][NEtPhe][Sar][hPhe(3-Cl-4-CF3)]P[Ac5c][NMeGly(cPent)][NMeD]-Morpholide; lactam N-11) , I found its Kd recorded as 0.41

====

biological target: GDP-bound KRAS wild-type protein (Homo sapiens, UniProt P01116); assay: Binding to KRAS by surface plasmon resonance (SPR), Single Cycle Kinetics; settings: SPR, Single Cycle Kinetics, GDP-bound KRAS wild-type protein; read-out: KRAS KD
Sequence (P01116 whole entry): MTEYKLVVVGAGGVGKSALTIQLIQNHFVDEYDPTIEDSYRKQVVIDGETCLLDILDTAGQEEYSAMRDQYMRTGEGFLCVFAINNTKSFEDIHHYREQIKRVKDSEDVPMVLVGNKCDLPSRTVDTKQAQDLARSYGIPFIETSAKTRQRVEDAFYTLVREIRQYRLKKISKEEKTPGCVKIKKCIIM
We begin with a simple list: items and their reported Kd.
The reply must contain the numeric value and, after it, the unit.

Kd value, target or system GDP-bound KRAS wild-type protein (Homo sapiens, UniProt P01116), for CCO[C@@H]1C[C@H]2C(=O)NC3(CCC3)C(=O)N(C)[C@@H](C3CCCC3)C(=O)N(C)[C@H](C(=O)N3CCC3)CC(=O)N(C)[C@@H](CC)C(=O)N[C@@H]([C@@H](C)CC)C(=O)N(C)CC(=O)N(C)[C@H]3C/C=C\CCN(C3=O)[C@@H](Cc3ccc(C(F)(F)F)cc3)C(=O)N(C)CC(=O)N[C@@H](CCc3cc(F)c(C(F)(F)F)c(F)c3)C(=O)N2C1 : 110 pM

Kd value, target or system GDP-bound KRAS wild-type protein (Homo sapiens, UniProt P01116), for CCO[C@@H]1C[C@H]2C(=O)NC3(CC(F)(F)C3)C(=O)N(C)[C@@H](C(CC)CC)C(=O)N3CCC[C@@H]3CC(=O)N(C)[C@@H](CC)C(=O)N[C@@H]([C@@H](C)CC)C(=O)N(C)CC(=O)N(C)[C@H]3C/C=C\CCN(C3=O)[C@@H](Cc3ccc(C(F)(F)F)cc3)C(=O)N(C)CC(=O)N[C@@H](CCc3cc(F)c(C(F)(F)F)c(F)c3)C(=O)N2C1 : 670 pM

====

target: GDP-bound KRAS wild-type protein (Homo sapiens); experiment: Binding to KRAS by surface plasmon resonance (SPR), Single Cycle Kinetics; conditions: SPR, Single Cycle Kinetics, 1:1 binding model; GDP-bound KRAS wild-type protein; read-out: KRAS KD
API: label(entry) gives class 1 if the entry's Kd is strictly smaller than 0.1 nM; on equality or larger values it gives class 0.

Just wondering, is Kd of CCC[C@H]1C(=O)N[C@@H]([C@@H](C)CC)C(=O)N(C)CC(=O)N(C)[C@H]2C/C=C\CCN(C2=O)[C@@H](Cc2ccc(C(F)(F)F)cc2)C(=O)N(C)CC(=O)N[C@@H](CCc2ccc(C(F)(F)F)c(OC)c2)C(=O)N2C[C@H](OCC)C[C@H]2C(=O)NC2(CCC2)C(=O)N(C)[C@@H](C(CC)CC)C(=O)N(C)[C@H](C(=O)N(C)C)CC(=O)N1C below 0.1 nM?
class 0

Just wondering, is Kd of CCO[C@@H]1C[C@H]2C(=O)NC3(CCC3)C(=O)N(C)[C@@H](C3CCCC3)C(=O)N(C)[C@H](C(=O)N(C)CC)CC(=O)N(C)[C@@H](CC3CC3)C(=O)N[C@@H]([C@@H](C)CC)C(=O)N(C)CC(=O)N(C)[C@H]3C/C=C\CCN(C3=O)[C@@H](Cc3ccc(C(F)(F)F)cc3)C(=O)N(C)CC(=O)N[C@@H](CCc3cc(F)c(C(F)(F)F)c(F)c3)C(=O)N2C1 below 0.1 nM?
class 1

Just wondering, is Kd of CCO[C@@H]1C[C@H]2C(=O)NC3(CCCC3)C(=O)N(C)[C@@H](C3CCCC3)C(=O)N(C)[C@H](C(=O)N3CCOCC3)CC(=O)N(C)[C@@H](CC)C(=O)N[C@@H]([C@@H](C)CC)C(=O)N(C)CC(=O)N(C)[C@H]3CC[C@@H](C)CN(C3=O)[C@@H](Cc3ccc(C(F)(F)F)cc3)C(=O)N(C)CC(=O)N[C@@H](CCc3ccc(C(F)(F)F)c(Cl)c3)C(=O)N2C1 below 0.1 nM?
class 1
